# Tested on: IL-12 mRNA
# measurement description: IL-12 mRNA in LPS-activated primary murine macrophages
# Type: cell-based, mouse
# assay conditions: 600 nM, +IFN, LPS; average of 3 treatments
# Protocol: To investigate the role of miRNAs in the immune response, oligomeric compounds of the present invention targeting miRNAs were tested for their effects upon lipopolysaccharide (LPS)-activated primary murine macrophages. Macrophages participate in the immune response, for example, in the recognition and phagocytosis of microorganisms, including bacteria. […]
In the oligonucleotide strings, read from the 5' end, every base follows the letter of its sugar. An asterisk marks phosphorothioate; unmarked linkages are phosphodiester. Other units and linkages are bracketed, terminal groups are in braces. A string of capitals states the bases alone. e = 2'-O-(2-methoxyethyl) (MOE); [5mC] = 5-methylcytosine; d = 2'-deoxy (DNA)
property label: IL-12 mRNA expression, % UTC (% UTC)
Give a bare numeral; the unit % UTC is implied.

Solved entries:
{"substance": "327941 (antisense eA*eA*e[5mC]*e[5mC]*e[5mC]*eA*e[5mC]*e[5mC]*eG*eA*e[5mC]*eA*eG*e[5mC]*eA*eA*eT*eG*eA*eA*eT*eG*eT*eT) [compound 327941]", "IL-12 mRNA expression, % UTC / % UTC": 3}
{"substance": "229927 (antisense e[5mC]*e[5mC]*eA*e[5mC]*eA*dT*dT*dG*dA*dG*dT*dT*dT*d[5mC]*dT*eT*eT*eA*eA*eG) [compound 229927]", "IL-12 mRNA expression, % UTC / % UTC": 8}
{"substance": "289606 (antisense CCUUCCCUGAAGGUUCCUCC; all 2'-MOE, all C 5-methyl, all phosphorothioate, T or U not given here) [compound 289606]", "IL-12 mRNA expression, % UTC / % UTC": 66}
{"substance": "327921 (antisense e[5mC]*eT*eT*e[5mC]*e[5mC]*eA*eG*eT*e[5mC]*eG*eG*eG*eG*eA*eT*eG*eT*eT*eT*eA*e[5mC]*eA) [compound 327921]", "IL-12 mRNA expression, % UTC / % UTC": 5}
{"substance": "342683 (antisense CCTTCCCTGAAGGTTCCTCCTT; scrambled control, further chemistry not given here) [compound 342683]", "IL-12 mRNA expression, % UTC / % UTC": 64}

Next item in the queue.
Query: Identify the measured IL-12 mRNA expression, % UTC of 129690 (antisense TTAGAATACGTCGCGTTATG; sugars from the 5' end e5 d10 e5, all phosphorothioate, methylation of C not given here) [compound 129690] for IL-12 mRNA.
Reply: 81

###

# Test system: follistatin
# measurement description: Follistatin mRNA expression in HepG2 cells
# Format: cell-based, human
# assay conditions: Experiment 2, 1 nM insulin treated; HepG2; 100 nM oligomeric compound
# Procedure: Approximately 28 hours after transfection, the cells are subjected to serum starvation for a period of 12 to 16 hours, using serum-free growth medium. […] Following insulin treatment (forty-eight hours after transfection), total RNA is harvested from all samples, and the amount of total RNA from each sample is determined using a Ribogreen assay (Invitrogen Corporation, Carlsbad, Calif.). […]
In the oligonucleotide strings, read from the 5' end, every base follows the letter of its sugar. An asterisk marks phosphorothioate; unmarked linkages are phosphodiester. Other units and linkages are bracketed, terminal groups are in braces. A string of capitals states the bases alone. e = 2'-O-(2-methoxyethyl) (MOE); [5mC] = 5-methylcytosine
property label: Follistatin (% UTC)
Express it in % UTC; write the number only.

Examples with their reported Follistatin (% UTC) follow.
{"substance": "338664 (antisense e[5mC]*eA*eG*eA*e[5mC]*eT*e[5mC]*e[5mC]*e[5mC]*eA*eA*e[5mC]*eT*eG*eA*e[5mC]*e[5mC]*eA*eG*eA) [compound 338664]", "reported result": 84}
{"substance": "327941 (antisense eA*eA*e[5mC]*e[5mC]*e[5mC]*eA*e[5mC]*e[5mC]*eG*eA*e[5mC]*eA*eG*e[5mC]*eA*eA*eT*eG*eA*eA*eT*eG*eT*eT) [compound 327941]", "reported result": 68}
{"substance": "327905 (antisense e[5mC]*eA*eG*eA*e[5mC]*eT*e[5mC]*e[5mC]*eG*eG*eT*eG*eG*eA*eA*eT*eG*eA*eA*eG*eG*eA) [compound 327905]", "reported result": 148}

Query: Item under review: 327933 (antisense eA*eA*eG*eG*eG*eA*eT*eT*e[5mC]*e[5mC]*eT*eG*eG*eG*eA*eA*eA*eA*e[5mC]*eT*eG*eG*eA*e[5mC]) [compound 327933] . Reported Follistatin (% UTC)?
Reply: 185

Query: // query: 327903 (antisense eA*eA*e[5mC]*eT*eA*eT*eA*e[5mC]*eA*eA*e[5mC]*e[5mC]*eT*eA*e[5mC]*eT*eA*e[5mC]*e[5mC]*eT*e[5mC]*eA) [compound 327903]
Reply: 89

Every entry's value here was drawn from patent US8178506B2.
